Origin of measurements: patent US8563730B2

# system_under_test: GK (glucokinase, residues 12-465) (Homo sapiens, UniProt P35557)
# Construct: I.D. No. 1 corresponds to residues 12-465 of glucokinase; made in house; host or cells: DH10b-T1r E. coli
# assay_explanation: enzymatic glucokinase activity assay (ATP consumption, KinaseGlo luminescence)
# Assay type: biochemical
# measurement_context: calculated maximal gain in GK enzyme activity at a saturating concentration of the compound; 5 μM ATP, 5 mM Glucose; reported as bins; read-out: % ACTmax
readout_kind: Emax

// solved cases for Emax follow
O=C(Nc1ncc(F)s1)[C@@H](CC1CCOCC1)n1cc(S(=O)(=O)C2CCCC2)cn1 (single isomer, unassigned) [Compound 37]
≥ 111%
COc1cc(S(=O)(=O)C2CC2)c2cnn(C(CC3CCOCC3)C(=O)Nc3ccn(C)n3)c2c1 (stereo not drawn)
≤ 90%

Turning now to a further compound:
Query :: # query: Emax of entry O=C(Nc1ncc(F)s1)C(CC1CCOCC1)n1ncc2c(S(=O)(=O)C3CC3)c(F)ccc21 (stereo not drawn)
Result :: ≥ 111%

----------
# system_under_test: GK (glucokinase, residues 12-465) (Homo sapiens, UniProt P35557)
# Construct: I.D. No. 1 corresponds to residues 12-465 of glucokinase
# assay_explanation: enzymatic glucokinase activity assay (ATP consumption, KinaseGlo luminescence)
# measurement_context: Kact = concentration that displays 50% of the maximal increase in GK activity; 5 μM ATP, 5 mM Glucose, 60 min, room temperature; reported as bins; read-out: pKact
readout_kind: EC50

Worked set:
O=C(Nc1ncc(Cl)s1)[C@@H](CC1CCOCC1)n1cc(S(=O)(=O)C2CCCC2)cn1 [Compound 58]
≥ 15800 nM
O=C(Nc1ncc(F)s1)C(CC1CCOCC1)n1ncc2c(S(=O)(=O)C3CC3)c(F)ccc21 (stereo not drawn) [Compound 149]
≤ 316 nM
CCn1ccc(NC(=O)C(CC2CCOCC2)n2ncc3c(S(=O)(=O)C4CC4)c(F)ccc32)n1 (stereo not drawn) [Compound 155]
≤ 316 nM
O=C(Nc1cnccn1)[C@H](CC1CCOCC1)n1ncc2c(S(=O)(=O)C3CC3)ccnc21 [Compound 162]
1580 to 3160 nM
NC(=O)c1ccc(NC(=O)[C@@H](CC2CCOCC2)n2ncc3c(S(=O)(=O)C4CC4)cccc32)nc1 [Compound 108]
3980 to 12600 nM

Query :: Fill in: EC50 of O=C(Nc1cnccn1)C(CC1CCOCC1)n1ncc2c(S(=O)(=O)C3CC3)cncc21 (stereo not drawn) [20 (Free Base)] is ___
Result :: 398 to 1260 nM

Query :: // query EC50 value for entry O=C1CC[C@H](CC(C(=O)Nc2ncc(Cl)s2)n2ncc3c(S(=O)(=O)C4CC4)cccc32)C1 (stereo partly drawn) [Compound 11]
Result :: ≤ 316 nM

Query :: Entry under review: Cn1ccc(NC(=O)C(CC2CCOCC2)n2ncc3c(S(=O)(=O)C4CC4)cncc32)n1 (stereo not drawn) [Compound 151] . Reported EC50?
Result :: 1580 to 3160 nM

Query :: What measured EC50 goes with O=C(Nc1cnccn1)C(CC1CCOCC1)n1cc2c(S(=O)(=O)C3CC3)c(F)ccc2n1 (stereo not drawn) [Compound 156] ?
Result :: ≤ 316 nM

Query :: Quick one: EC50 for N#Cc1ccc(NC(=O)C(CC2CCOCC2)n2ncc3c(S(=O)(=O)C4CC4)cccc32)nc1 (stereo not drawn) [Compound 135] ?
Result :: 398 to 1260 nM

----------
# system_under_test: GK (glucokinase, residues 12-465) (Homo sapiens)
# Construct: I.D. No. 1 corresponds to residues 12-465 of glucokinase; made in house; host or cells: DH10b-T1r E. coli
# Sequence (P35557 with tags, fused parts or gaps isoform P35557-2): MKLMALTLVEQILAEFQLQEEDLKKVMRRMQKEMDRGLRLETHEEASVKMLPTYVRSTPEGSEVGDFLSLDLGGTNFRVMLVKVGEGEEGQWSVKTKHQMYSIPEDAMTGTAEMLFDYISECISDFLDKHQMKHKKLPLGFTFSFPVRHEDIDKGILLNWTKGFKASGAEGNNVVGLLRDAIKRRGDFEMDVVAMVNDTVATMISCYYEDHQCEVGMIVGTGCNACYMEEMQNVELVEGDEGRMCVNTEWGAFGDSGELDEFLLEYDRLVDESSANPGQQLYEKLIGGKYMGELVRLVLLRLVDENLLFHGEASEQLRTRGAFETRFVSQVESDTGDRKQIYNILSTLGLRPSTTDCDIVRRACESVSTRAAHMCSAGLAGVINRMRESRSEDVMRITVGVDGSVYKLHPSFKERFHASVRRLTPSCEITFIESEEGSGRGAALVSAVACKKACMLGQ
# assay_explanation: enzymatic glucokinase activity assay (ATP consumption, KinaseGlo luminescence)
# Format: biochemical
# measurement_context: calculated maximal gain in GK enzyme activity at a saturating concentration of the compound; 5 μM ATP, 5 mM Glucose; reported as bins; read-out: % ACTmax
readout_kind: Emax

Guide cases for Emax, answers given:
Cc1ccc2c(cnn2C(CC2CCOCC2)C(=O)Nc2cnccn2)c1S(=O)(=O)C1CC1 (stereo not drawn)
≥ 111%
O=C1CC[C@@H](C[C@@H](C(=O)Nc2ncc(F)s2)n2cc(S(=O)(=O)C3CC3)cn2)C1
≤ 90%
COc1ccc2c(cnn2[C@H](CC2CCOCC2)C(=O)Nc2cnccn2)c1S(=O)(=O)C1CC1
≤ 90%

Query :: Requested field: Emax. Item: CS(=O)(=O)c1cccc2c1cnn2C(CC1CCOCC1)C(=O)Nc1ncc(F)s1 (stereo not drawn)
Result :: ≤ 90%

Query :: Name the reported Emax value associated with the compound O=C1CC[C@H](C[C@@H](C(=O)Nc2ncc(F)s2)n2cc(S(=O)(=O)C3CC3)cn2)C1
Result :: ≤ 90%

Query :: Could you tell me which Emax is on file for Nc1cc(S(=O)(=O)C2CC2)c2cnn([C@@H](CC3CCOCC3)C(=O)Nc3cnccn3)c2n1 ?
Result :: 106 to 110%

Query :: Give its Emax value. Item: Cn1ccc(NC(=O)C(CC2CCOCC2)n2ncc3c(S(=O)(=O)C4CC4)cncc32)n1 (stereo not drawn)
Result :: 90 to 100%

Query :: Look up Emax: COc1ccc2nc(NC(=O)[C@H](CC3CCOCC3)n3ccc(S(=O)(=O)C4CC4)n3)sc2n1
Result :: ≤ 90%

Query :: What value of Emax has been reported for the following compound? CC(C)(C)S(=O)(=O)c1cnn([C@@H](CC2CCOCC2)C(=O)Nc2ncc(F)s2)c1
Result :: ≤ 90%

----------
# system_under_test: GK (glucokinase, residues 12-465) (Homo sapiens, UniProt P35557)
# Construct: I.D. No. 1 corresponds to residues 12-465 of glucokinase
# assay_explanation: enzymatic glucokinase activity assay (ATP consumption, KinaseGlo luminescence)
# measurement_context: Kact = concentration that displays 50% of the maximal increase in GK activity; 5 μM ATP, 5 mM Glucose, 60 min, room temperature; reported as bins; read-out: pKact
pEC50: −log10 of the molar value.
Each item that follows carries a reported pEC50.

Previously resolved entries follow.
O=C(Nc1ncc(Cl)s1)[C@@H](CC1CCCC1)n1cc(S(=O)(=O)C2CC2)cn1
≤ 4.80
O=C(Nc1ncc(F)s1)[C@@H](CC1CCOCC1)n1ncc2c(S(=O)(=O)C3CC3)cc(Cl)cc21
4.90 to 5.40
O=C(Nc1ncc(Cl)s1)C(CC1CCOCC1)n1ncc2ccc(S(=O)(=O)C3CC3)cc21 (centres unmarked)
≤ 4.80

Query :: Which pEC50 is reported with GK (glucokinase, residues 12-465) (Homo sapiens, UniProt P35557) for this entry: NC(=O)c1ccc(NC(=O)C(CC2CCOCC2)n2ncc3c(S(=O)(=O)C4CC4)cccc32)nc1 (centres unmarked) ?
Result :: ≥ 6.50

Query :: Record lookup: for GK (glucokinase, residues 12-465) (Homo sapiens, UniProt P35557), what pEC50 belongs to Cn1ccc(NC(=O)C(CC2CCOCC2)n2cc3c(S(=O)(=O)C4CC4)cc(Cl)cc3n2)n1 (centres unmarked) ?
Result :: 4.90 to 5.40

Query :: Lab note: need pEC50 for Nc1cc(S(=O)(=O)C2CC2)c2cnn(C(CC3CCOCC3)C(=O)Nc3cnccn3)c2n1 (centres unmarked) on GK (glucokinase, residues 12-465) (Homo sapiens, UniProt P35557), anyone have it?
Result :: 5.90 to 6.40

Query :: Checklist item: pEC50 tested on GK (glucokinase, residues 12-465) (Homo sapiens, UniProt P35557), entry O=C(Nc1ncc(F)s1)C(CC1CCOCC1)n1ncc2c(S(=O)(=O)C3CC3)ccnc21 (centres unmarked) , value?
Result :: ≥ 6.50

Query :: GET /values?readout=pEC50&system=GK (glucokinase, residues 12-465) (Homo sapiens, UniProt P35557)&item= NC(=O)c1ccc(NC(=O)[C@H](CC2CCOCC2)n2ncc3c(S(=O)(=O)C4CC4)cccc32)nc1
Result :: ≥ 6.50
